TARGET_OF_ASSAY: Phosphatidylinositol 4,5-bisphosphate 3-kinase catalytic subunit alpha isoform (Homo sapiens, UniProt P42336)
Sequence (P42336 whole entry, canonical isoform): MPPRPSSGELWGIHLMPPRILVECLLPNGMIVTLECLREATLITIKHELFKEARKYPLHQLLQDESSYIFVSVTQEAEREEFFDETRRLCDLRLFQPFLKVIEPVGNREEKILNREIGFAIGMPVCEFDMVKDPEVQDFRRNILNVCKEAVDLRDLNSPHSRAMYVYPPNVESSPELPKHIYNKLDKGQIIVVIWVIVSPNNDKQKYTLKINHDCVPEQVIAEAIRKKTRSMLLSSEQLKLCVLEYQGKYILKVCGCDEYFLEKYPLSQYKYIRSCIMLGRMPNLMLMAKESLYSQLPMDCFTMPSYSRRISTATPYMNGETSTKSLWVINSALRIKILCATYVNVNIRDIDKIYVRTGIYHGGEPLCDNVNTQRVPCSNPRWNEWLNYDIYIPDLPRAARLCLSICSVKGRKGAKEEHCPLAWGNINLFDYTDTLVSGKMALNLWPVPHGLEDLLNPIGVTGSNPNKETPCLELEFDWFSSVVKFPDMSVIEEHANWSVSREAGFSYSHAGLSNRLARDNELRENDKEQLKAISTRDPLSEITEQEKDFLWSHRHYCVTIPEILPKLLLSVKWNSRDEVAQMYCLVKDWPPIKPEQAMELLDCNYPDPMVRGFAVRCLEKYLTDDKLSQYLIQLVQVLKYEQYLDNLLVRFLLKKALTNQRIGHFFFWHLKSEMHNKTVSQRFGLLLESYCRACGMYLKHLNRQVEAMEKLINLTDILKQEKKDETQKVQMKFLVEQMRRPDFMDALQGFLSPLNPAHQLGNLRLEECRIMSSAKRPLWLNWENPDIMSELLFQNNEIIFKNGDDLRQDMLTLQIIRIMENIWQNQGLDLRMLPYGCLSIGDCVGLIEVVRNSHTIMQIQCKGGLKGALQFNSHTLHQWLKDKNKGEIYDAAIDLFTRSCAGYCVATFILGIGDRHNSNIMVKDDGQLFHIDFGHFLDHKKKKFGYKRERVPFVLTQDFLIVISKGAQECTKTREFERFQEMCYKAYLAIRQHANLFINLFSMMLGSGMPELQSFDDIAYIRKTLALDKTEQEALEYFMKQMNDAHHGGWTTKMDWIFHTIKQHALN
TEST_METHOD_NOTES: Inhibition of PI3Kalpha (unknown origin)
READOUT_LABEL: IC50

Quick check: IC50 of c1n[nH]c(-c2nc3c(s2)CCOc2cc(-c4cn[nH]c4)ccc2-3)n1 ?
0.269 nM

Please turn your attention to the following entry.
Quick check: IC50 of c1n[nH]c(-c2nc3c(s2)CCOc2cc(C4CNC4)ccc2-3)n1 ?
1.91 nM

###

TARGET_OF_ASSAY: Macrophage colony-stimulating factor 1 receptor (Homo sapiens)
Sequence (P07333 whole entry): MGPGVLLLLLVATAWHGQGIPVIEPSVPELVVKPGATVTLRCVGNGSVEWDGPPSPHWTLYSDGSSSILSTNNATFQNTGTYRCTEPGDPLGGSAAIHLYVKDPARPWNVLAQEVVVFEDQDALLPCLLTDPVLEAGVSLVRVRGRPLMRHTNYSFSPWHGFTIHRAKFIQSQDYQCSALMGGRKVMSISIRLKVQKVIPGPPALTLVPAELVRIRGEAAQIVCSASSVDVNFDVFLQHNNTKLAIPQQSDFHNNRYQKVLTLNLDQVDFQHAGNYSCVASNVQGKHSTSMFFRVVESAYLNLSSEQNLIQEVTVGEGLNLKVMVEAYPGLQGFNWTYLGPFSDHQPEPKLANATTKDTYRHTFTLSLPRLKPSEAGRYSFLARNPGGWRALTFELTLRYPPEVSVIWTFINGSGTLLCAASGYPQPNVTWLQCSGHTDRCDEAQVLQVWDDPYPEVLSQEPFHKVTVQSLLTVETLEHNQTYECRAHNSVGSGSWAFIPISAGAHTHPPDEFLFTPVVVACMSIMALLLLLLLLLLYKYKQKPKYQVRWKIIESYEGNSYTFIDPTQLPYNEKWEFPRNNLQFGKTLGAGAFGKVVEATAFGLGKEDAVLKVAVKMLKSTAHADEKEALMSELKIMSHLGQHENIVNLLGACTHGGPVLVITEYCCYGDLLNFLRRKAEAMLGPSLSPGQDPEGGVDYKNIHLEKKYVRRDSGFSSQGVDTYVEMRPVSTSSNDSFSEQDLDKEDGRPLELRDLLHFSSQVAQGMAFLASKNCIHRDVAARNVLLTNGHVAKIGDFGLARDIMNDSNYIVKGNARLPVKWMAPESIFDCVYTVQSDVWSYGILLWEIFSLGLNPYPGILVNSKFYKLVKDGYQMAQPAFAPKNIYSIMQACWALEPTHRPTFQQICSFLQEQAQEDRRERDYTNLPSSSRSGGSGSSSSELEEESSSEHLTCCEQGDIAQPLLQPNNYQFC
READOUT_LABEL: IC50 (nM)
Express the result in nM but write the number alone.

Quick check: IC50 of C1=C(c2cc(C3CNCNC3)ccc2NCc2ncc[nH]2)CCCC1 ?
2.51
